- System: hLiMTs
- test details: Combined HCI (HCS) and cellular ATP 3D assay in hLiMTs
- protocol conditions: hLiMTs; HCS endpoints; cut-off <100x Avg Cmaxu
quantity kind: hLiMTs <100x Avg Cmaxu HCS

[[record]]
compound = "Cc1ccc(N(CC2=NCCN2)c2cccc(O)c2)cc1"
quantity_kind = "hLiMTs <100x Avg Cmaxu HCS"
observed_value = "-ve"

[[record]]
compound = "CCc1nn(CCCN2CCN(c3cccc(Cl)c3)CC2)c(=O)n1CCOc1ccccc1 [nefazodone, reference compound]"
quantity_kind = "hLiMTs <100x Avg Cmaxu HCS"
observed_value = "-ve"


---

- Test system: hLiMTs
- test details: Combined HCI (HCS) and cellular ATP 3D assay in hLiMTs
- protocol conditions: hLiMTs; all endpoints; cut-off <10 uM
quantity kind: hLiMTs <10 uM All

Sample answers from the record:
[[record]]
compound = "CCOC(=O)c1ncn2c1CN(C)C(=O)c1cc(F)ccc1-2 [flumazenil, reference compound]"
tested_target = "hLiMTs"
observed_value = "-ve"

[[record]]
compound = "CCOC(=O)CN[C@@H](C(=O)N1CC[C@H]1C(=O)NCc1ccc(/C(N)=N\\O)cc1)C1CCCCC1 [ximelagatran]"
tested_target = "hLiMTs"
observed_value = "-ve"

[[record]]
compound = "CCN(CC)CCNC(=O)c1c(C)[nH]c(/C=C2\\C(=O)Nc3ccc(F)cc32)c1C [sunitinib]"
tested_target = "hLiMTs"
observed_value = "+ve (<10 uM)"

[[record]]
compound = "CCc1nn(CCCN2CCN(c3cccc(Cl)c3)CC2)c(=O)n1CCOc1ccccc1 [nefazodone, reference compound]"
tested_target = "hLiMTs"
observed_value = "+ve (<10 uM)"

[[record]]
compound = "CNC1(C)C2CCC(C2)C1(C)C (centres unmarked) [mecamylamine]"
tested_target = "hLiMTs"
observed_value = "-ve"


Record summary for Cc1ccc(C(=O)c2cc(O)c(O)c([N+](=O)[O-])c2)cc1 [tolcapone, reference compound] : reported hLiMTs <10 uM All = -ve

Record summary for C[N+](C)(C)CC(=O)O [betaine, reference compound] : reported hLiMTs <10 uM All = -ve

Record summary for CN1CCN(C2=Nc3cc(Cl)ccc3Nc3ccccc32)CC1 [clozapine] : reported hLiMTs <10 uM All = +ve (<10 uM)

Record summary for CN(C)CCC(c1ccc(Cl)cc1)c1ccccn1 (centres unmarked) [chlorpheniramine] : reported hLiMTs <10 uM All = -ve

Record summary for CC[C@H]1OC(=O)[C@H](C)[C@@H](O[C@H]2C[C@@](C)(OC)[C@@H](O)[C@H](C)O2)[C@H](C)[C@@H](O[C@@H]2O[C@H](C)C[C@H](N(C)C)[C@H]2O)[C@](C)(O)C[C@@H](C)C(=O)[C@H](C)[C@@H](O)[C@]1(C)O [erythromycin] : reported hLiMTs <10 uM All = -ve

Record summary for NCCCC(O)(P(=O)(O)O)P(=O)(O)O [alendronate] : reported hLiMTs <10 uM All = +ve (<10 uM)

Record summary for C#CCN(C)Cc1ccccc1 [pargyline] : reported hLiMTs <10 uM All = -ve

Record summary for CCN(CC)C(=O)/C(C#N)=C/c1cc(O)c(O)c([N+](=O)[O-])c1 [entacapone] : reported hLiMTs <10 uM All = -ve

Record summary for CC(=O)N1CCN(c2ccc(OCC3COC(Cn4ccnc4)(c4ccc(Cl)cc4Cl)O3)cc2)CC1 (centres unmarked) [ketoconazole, reference compound] : reported hLiMTs <10 uM All = +ve (<10 uM)

Record summary for O=C1CC2(CCCC2)CC(=O)N1CCCCN1CCN(c2ncccn2)CC1 [buspirone, reference compound] : reported hLiMTs <10 uM All = +ve (<10 uM)

Record summary for O=c1[nH]c(=O)n([C@@H]2O[C@H](CO)[C@@H](O)[C@@H]2F)cc1I [fialuridine] : reported hLiMTs <10 uM All = +ve (<10 uM)

Record summary for CCN(CC)CC#CCOC(=O)C(O)(c1ccccc1)C1CCCCC1 (centres unmarked) [oxybutynin] : reported hLiMTs <10 uM All = +ve (<10 uM)

Measured values drawn from paper PMC7395068 for this set.
